TEST: Cell Viability - LYMP2-004 (AID 966);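 also: cells exposed to compound for 24 h; nearly all actives have a fitted effect of over 65% in size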
SETTINGS: LYMP2-004 lymphoblastoid cell viability, qHTS; series mostly up to 92.2 µM
Source text: NIH Chemical Genomics Center [NCGC] NIH Molecular Libraries Screening Centers Network [MLSCN] National Institutes of Environmental Health Sciences [NIEHS] National Toxicology Program [NTP] We have developed a 1536-well cell-based assay for quantitative high throughput screening (qHTS) against a number of cell lines to determine in vitro cytotoxicity of small molecules. […] 8. Detection; Luminescence; Viewlux plate reader […]
Results filed as inconclusive are left out. The source made the active and inactive calls. Calls follow the shape of the dose curve; as a rule, active = well fitted cell-killing curve with a large enough effect; inconclusive = small, poorly fitted or top-dose-only effect, or effect the other way; inactive = no such curve, though single readings can be large or run the other way.
Classes used: class 1 = active, class 0 = inactive

{"SMILES STRUCTURE": "CCCCCC/C(C=O)=C\\c1ccccc1", "GROUP LABEL": "class 0"}
{"SMILES STRUCTURE": "O=C(OCC(COC(=O)c1ccccc1)(COC(=O)c1ccccc1)COC(=O)c1ccccc1)c1ccccc1", "GROUP LABEL": "class 0"}
{"SMILES STRUCTURE": "C=C(C)c1ccccc1", "GROUP LABEL": "class 0"}
{"SMILES STRUCTURE": "CC(=O)Nc1ccc(C(=O)CCl)cc1", "GROUP LABEL": "class 1"}
